tested on: HL-60(TB) leukemia; test: NCI tumour cell line growth inhibition, 48 h
Items are presented alongside their recorded TGI.
measurement_kind: TGI

1. COc1ccc2c(c1)C1OCCNC1CC2 (stereo unspecified): > 100 µM
2. COC1(OC)N=C(N)C2(C#N)C3(C(=O)N(C(C)C)N=C3C)C12C#N (stereo unspecified): > 100 µM
3. Clc1cc2c(nn1)Nc1ccccc1S2: > 100 µM
4. NNC1=N/C(=C\c2ccco2)C(=O)N1: > 100 µM
5. CN(C)c1ccc(-c2c(C#N)c(O)n(NS(=O)(=O)c3ccccc3)c(=O)c2C#N)cc1: > 100 µM
6. Nc1c(C(=O)N/N=C/c2ccc(Cl)cc2)sc(=S)n1-c1ccccc1: > 100 µM
7. COc1cccc(C2ON=C(c3ccccc3)N2C23CC4CC(CC(C4)C2)C3)c1 (stereo unspecified): > 10 µM
8. COC(=O)NN1C(C)=C(C(=O)OC)C2(C#N)C(C(=O)OC)=C(C)N(NC(=O)OC)C12N (stereo unspecified): > 100 µM
9. CC(=O)OC12c3ccccc3-c3ccccc3C1C(C(=O)O)C2(Cl)C(=O)O (stereo unspecified): > 10 µM
10. COC(=O)c1c2c(cc3c1CC1(C3)Cc3cc4c(c(C(C)=O)c3C1)CCC4)C=CC2 (stereo unspecified): > 31.6 µM
11. Cc1ccc(N=C2S/C(=C3/CCC=C3N3CCOCC3)N(c3ccc(Cl)cc3)C2=Nc2ccc(C)cc2)cc1: > 100 µM
12. COC(=O)C1=Cc2cc(OC)c(OC)cc2[C@H](c2ccc(OC)c(OC)c2)C1C(=O)OC (stereo partly specified): > 100 µM
13. C=C1C(=O)O[C@@H]2[C@H]1CCC(C)=C1C=CC(=O)[C@]12C: 14 µM
14. CC1(c2cccc(N)c2)C2C(=O)NC(=O)C1C(=O)NC2=O (stereo unspecified): 43.2 µM
15. Cn1c2ccccc2c(=O)c2c(O)cc3c(c21)CC(C1(C)CO1)O3 (stereo unspecified): 2.32 µM
16. N#CC1(Nc2ccc(-c3ccc(NC4(C#N)CCCC4)cc3)cc2)CCCC1: > 100 µM
17. O=C1CCCCC=C1C[N+](=O)[O-]: > 100 µM
18. O=C(/C=C/c1ccccc1Cl)c1cccc2ccccc12: 37.7 µM
19. NC1CCC(Nc2nc(NCc3cc(Cl)ccc3O)c3ncn(C4CCCC4)c3n2)CC1 (stereo unspecified): 0.388 µM
20. COc1cccc(-n2cc(-c3nc(Nc4cc(C)[nH]n4)c4ccccc4n3)nn2)c1: 14.5 µM
21. CC1=NN2C(c3ccc(C)cc3)=CSC2=NC(C)(C)C1: > 100 µM
22. COC(=O)/C=C(/C(=O)OC)c1cc2ccc3c([nH]c4ccccc43)c(C)c-2c1: 12.5 µM
23. Cc1ccc2c(c1)C1C(CO2)C(c2ccccc2)=NN1c1ccccc1 (stereo unspecified): > 100 µM
24. O=C1C(Cl)C2(CC(/C=C/c3ccccc3O)=NN2c2cccc(S(=O)(=O)O)c2)N1c1nc2ccccc2s1 (stereo unspecified): 14.5 µM
25. C[N+](C)(CCCCCC[N+](C)(C)CCCN1C(=O)c2cc3ccccc3cc2C1=O)CCCN1C(=O)c2cc3ccccc3cc2C1=O: > 37.5 µM
26. N#Cc1ccsc1NC(=O)COC(=O)c1cccc(S(=O)(=O)N2CCc3ccccc32)c1: > 100 µM
27. CN1CC[C@]2(c3cccc(O)c3)CC(=O)/C(=C/c3ccccc3)[C@H]1C2: 5.45 µM
28. CC(=O)Nc1ccc(-c2nc3ccccc3s2)cc1C: > 100 µM
29. COc1cc(/C=C2\Oc3cc(OCCCN4CCCC4)ccc3C2=O)cc(OC)c1: 6.66 µM
30. C/C(=N\NS(=O)(=O)c1ccc(C)cc1)c1cc2ccccc2n1C: > 100 µM
31. CN(C)CC1CCC/C(=C\c2ccc(OC(=O)/C=C/c3ccccc3)cc2)C1=O (stereo unspecified): > 100 µM
